Consider the following molecules and their measured EC50 readings.
Target: RIPK1 (recombinant GST-RIPK1 kinase domain, residues 1-327) (Homo sapiens (Human), UniProt Q13546)
Sequence (Q13546 1-327): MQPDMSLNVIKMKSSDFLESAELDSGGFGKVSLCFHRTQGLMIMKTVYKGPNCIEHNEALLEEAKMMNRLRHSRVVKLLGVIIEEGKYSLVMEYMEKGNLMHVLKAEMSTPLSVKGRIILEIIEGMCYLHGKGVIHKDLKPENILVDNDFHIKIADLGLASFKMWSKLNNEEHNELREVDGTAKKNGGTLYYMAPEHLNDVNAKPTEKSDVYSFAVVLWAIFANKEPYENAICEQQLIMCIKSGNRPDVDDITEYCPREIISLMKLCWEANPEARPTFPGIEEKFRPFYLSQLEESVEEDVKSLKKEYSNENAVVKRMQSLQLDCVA
Assay: RIPK1-ADP-Glo Enzymatic Assay
Format: biochemical
Settings: ADP-Glo; 25 nM GST-RIPK1, 300 μM ATP; assay lower limit ~25 nM; read-out: RIPK1 V0 Ec50
Where a name gives a salt, the structure may show the parent alone.
Quantity Kind: EC50 (nM)

- Molecule: "O=C(c1ccc(F)c(F)n1)N1CCC2(CC1)O[C@@H]1CC[C@@H](c3cc(F)cc(F)c3)N1C2=O [Example 6.94]"
  Quantity Kind: "EC50"
  Value Relation Sign: "="
  Numeric Readout: 30.5
- Molecule: "N#Cc1cnc(N2CCC3(CC2)O[C@@H]2CC[C@@H](c4cc(F)cc(F)c4)N2C3=O)nc1 [Example 4.76]"
  Quantity Kind: "EC50"
  Value Relation Sign: "="
  Numeric Readout: 38.2
- Molecule: "COc1cc(N2CCC3(CC2)O[C@@H]2CC[C@@H](c4cc(F)cc(F)c4)N2C3=O)ncc1C#N [Example 4.43]"
  Quantity Kind: "EC50"
  Value Relation Sign: "<"
  Numeric Readout: 25
- Molecule: "N#Cc1ccc(N2CCC3(CC2)OC2CCC(c4cnccn4)N2C3=O)n2ncnc12 (centres unmarked) [Example 4.141]"
  Quantity Kind: "EC50"
  Value Relation Sign: "<"
  Numeric Readout: 25
- Molecule: "N#Cc1cc(N2CC3(C2)O[C@@H]2CC[C@@H](c4cc(F)cc(F)c4)N2C3=O)ncn1 [Example 4.118]"
  Quantity Kind: "EC50"
  Value Relation Sign: "="
  Numeric Readout: 228
- Molecule: "O=C(c1ccsc1-c1ncccn1)N1CCC2(CC1)O[C@@H]1CC[C@@H](c3cc(F)cc(F)c3)N1C2=O [Example 6.36]"
  Quantity Kind: "EC50"
  Value Relation Sign: "="
  Numeric Readout: 851
- Molecule: "O=C(c1ccccc1)N1CCC2(CC1)C[C@@H]1OC[C@@H](c3ccccc3)N1C2=O [Example 7.3]"
  Quantity Kind: "EC50"
  Value Relation Sign: "="
  Numeric Readout: 102
- Molecule: "CC1CN(c2cccc3ncnn23)CCC12O[C@@H]1CC[C@@H](c3ccccc3)N1C2=O (some centres unmarked) [Example 4.244]"
  Quantity Kind: "EC50"
  Value Relation Sign: "<"
  Numeric Readout: 25
- Molecule: "O=C(c1cc2n(n1)CCCC2)N1CCC2(CC1)O[C@@H]1CC[C@@H](c3cc(F)cc(F)c3)N1C2=O [Example 5.75]"
  Quantity Kind: "EC50"
  Value Relation Sign: "="
  Numeric Readout: 524
- Molecule: "O=C1N2[C@@H](CC[C@H]2c2cc(F)cc(F)c2)OC12CCN(c1ccnn3ccnc13)CC2 [Example 13.3, TFA salt]"
  Quantity Kind: "EC50"
  Value Relation Sign: "<"
  Numeric Readout: 25
- Molecule: "O=C(c1ccc(Br)cn1)N1CCC2(CC1)O[C@@H]1CC[C@@H](c3cc(F)cc(F)c3)N1C2=O [Example 6.100]"
  Quantity Kind: "EC50"
  Value Relation Sign: "="
  Numeric Readout: 66.7
- Molecule: "O=C1N2[C@@H](CC[C@H]2c2ccccc2)OC12CCN(c1cccc3ncnn13)CC2 [Example 13.1, TFA]"
  Quantity Kind: "EC50"
  Value Relation Sign: "="
  Numeric Readout: 26.8
- Molecule: "O=C(c1cnc2cnccn12)N1CCC2(CC1)O[C@@H]1CC[C@@H](c3cc(F)cc(F)c3)N1C2=O [Example 5.67]"
  Quantity Kind: "EC50"
  Value Relation Sign: "="
  Numeric Readout: 135
- Molecule: "Cc1cnc(-c2ccc(N3CCC4(CC3)O[C@@H]3CC[C@@H](c5ccccc5)N3C4=O)n3nccc23)o1 [Example 21.17]"
  Quantity Kind: "EC50"
  Value Relation Sign: "<"
  Numeric Readout: 25
- Molecule: "O=C1N2[C@@H](CC[C@H]2c2ccccc2)OC12CCN(c1ncc(Br)c3ncnn13)CC2 [Example 4.239]"
  Quantity Kind: "EC50"
  Value Relation Sign: "<"
  Numeric Readout: 25
- Molecule: "CC1CN(c2ncnc3ccnn23)CCC12O[C@@H]1CC[C@@H](c3cc(F)cc(F)c3)N1C2=O (some centres unmarked) [Example 4.267]"
  Quantity Kind: "EC50"
  Value Relation Sign: "<"
  Numeric Readout: 25
- Molecule: "COc1nc(N2CCC3(CC2)O[C@@H]2CC[C@@H](c4cc(F)cc(F)c4)N2C3=O)ncc1F [Example 4.21]"
  Quantity Kind: "EC50"
  Value Relation Sign: "<"
  Numeric Readout: 25
- Molecule: "O=C(c1cccc(C2CC2)c1)N1CCC2(CC1)O[C@@H]1CC[C@@H](c3cc(F)cc(F)c3)N1C2=O [Example 5.62]"
  Quantity Kind: "EC50"
  Value Relation Sign: "<"
  Numeric Readout: 25
- Molecule: "CC(C)(C)OC(=O)c1ccc(N2CCC3(CC2)O[C@@H]2CC[C@@H](c4ccccc4)N2C3=O)nc1 [Example 4.198]"
  Quantity Kind: "EC50"
  Value Relation Sign: "="
  Numeric Readout: 249
- Molecule: "N#Cc1ccc(N2CCC3(O[C@@H]4CC[C@@H](c5ccccc5)N4C3=O)C(F)C2)n2ncnc12 (some centres unmarked) [Example 4.257]"
  Quantity Kind: "EC50"
  Value Relation Sign: "<"
  Numeric Readout: 25
- Molecule: "N#Cc1ccc(N2CCC3(CC2)O[C@@H]2CC[C@@H](c4cc(F)cc(F)c4)N2C3=O)cc1F [Example 4.18]"
  Quantity Kind: "EC50"
  Value Relation Sign: "<"
  Numeric Readout: 25
- Molecule: "O=C(c1cccc(-c2ccccc2)n1)N1CCC2(CC1)O[C@@H]1CC[C@@H](c3cc(F)cc(F)c3)N1C2=O [Example 6.97]"
  Quantity Kind: "EC50"
  Value Relation Sign: "<"
  Numeric Readout: 25
- Molecule: "O=C(c1cccc2ccnn12)N1CCC2(CC1)O[C@@H]1CC[C@@H](c3cc(F)cc(F)c3)N1C2=O [Example 6.27]"
  Quantity Kind: "EC50"
  Value Relation Sign: "="
  Numeric Readout: 47.6
- Molecule: "O=C1N2[C@@H](CC[C@H]2c2cc(F)cc(F)c2)OC12CCN(c1cccc3ncnn13)CC2 [Example 13.2, TFA salt]"
  Quantity Kind: "EC50"
  Value Relation Sign: "<"
  Numeric Readout: 25
- Molecule: "O=C1N2[C@@H](CC[C@H]2c2ccccc2)OC12CCN(c1ncnc3c1CCO3)CC2 [Example 4.217]"
  Quantity Kind: "EC50"
  Value Relation Sign: "="
  Numeric Readout: 25.8
- Molecule: "N#Cc1ccc(N2CCC3(CC2)O[C@@H]2CC[C@@H](c4cccc(F)c4)N2C3=O)n2ncnc12 [Example 4.259]"
  Quantity Kind: "EC50"
  Value Relation Sign: "<"
  Numeric Readout: 25
- Molecule: "Cc1nc(N2CCC3(CC2)O[C@@H]2CC[C@@H](c4ccccc4)N2C3=O)ccc1F [Example 11.33]"
  Quantity Kind: "EC50"
  Value Relation Sign: "<"
  Numeric Readout: 25
- Molecule: "O=C1N2[C@@H](CC[C@H]2c2ccccc2)OC12CCN(c1cc(-n3ccnc3)ccn1)CC2 [Example 11.21]"
  Quantity Kind: "EC50"
  Value Relation Sign: "="
  Numeric Readout: 229
- Molecule: "CCc1ccc(N2CCC3(CC2)O[C@@H]2CC[C@@H](c4ccccc4)N2C3=O)n2ncnc12 [Example 4.221]"
  Quantity Kind: "EC50"
  Value Relation Sign: "<"
  Numeric Readout: 25

The measurements presented in this section are drawn from patent US12180226B2.
